- Tested on: ACHN renal
- Method Notes: NCI-60 one-dose screen, 48 h
- Condition Details: 10 µM unless noted
The panel holds about 83,000 compounds, 20% with a hit somewhere; the sample as a whole holds those more often. Activity calls are given as the source filed them. The calls were made as follows: active = growth percent below 10; inactive = the rest.
Labels: t (active), f (inactive)

Smiles Input | Cat
N#Cc1cnc2ccc(-c3cnc(N)nc3)cc2c1N1CCc2cc(F)c(Cl)cc21 | t
COc1ccc(NC(=O)CSc2nnc(-c3ccc4nc(-c5ccccc5)[nH]c4c3)o2)cc1 | f
Cc1ccc(-c2cc3nc(C(Cl)Cl)nc(C)n3n2)cc1 | f
Cc1ccc(C(=O)NN2C(=O)/C(=C/C=C/c3ccco3)SC2=S)cc1 | f
Cc1ccc2c(c1)C(=O)/C(=C/c1cccc(F)c1)S2 | f
O=C1[C@H]2Cc3c([nH]c4ccccc34)[C@@H](c3ccc(Br)cc3)N2C(=O)CN1C1CCN(CC2CCCCC2)CC1 | t
CCN(CC)CCn1c2ccc(O)cc2c2sc3cc(OC)ccc3c(=O)c21 | f
N#Cc1c(Nc2ccccc2)nn2c(-c3ccc([N+](=O)[O-])cc3)ccnc12 | f

====

The reader will find reported growth values listed item by item below.
- Test system: 786-0 renal
- Method Notes: NCI-60 one-dose screen, 48 h (100 = growth as untreated, 0 = no growth, -100 = all killed)
- Condition Details: 10 µM unless noted
This is part of a sample that, as a whole, favours compounds with a hit. Of some 83,000 tested, about 20% had one in any assay.

Compound | growth [%]
CCO/C=N/C1=C(C#N)C(c2ccc(F)cc2)c2sc3c(CC)cccc3c2O1 (configuration not stated) | 26.3
COc1cc(/C=C2\C(=O)Nc3cc(Cl)ccc32)ccc1OCc1ccc(F)cc1 | 108
CCCCNNC(=O)c1ccc(-c2cccc(F)c2F)cc1 | 50.8
C[C@@H](Nc1ncnc2ccc(-c3cnc(Cl)c(NS(C)(=O)=O)c3)cc12)c1ccccc1 | 45.4
C=C(C=O)[C@@H]1CC[C@]2(C)[C@H](CC=C3[C@H]4[C@@H](C)[C@H](C)CC[C@]4(C(=O)OC)CC[C@]32C)[C@@]1(C)CCC#N | 5.57
COc1ccc(C2CC(c3ccc(Nc4nc(NCCO)nc(N5CCOCC5)n4)cc3)=Nc3c(N)nc(N)nc3N2)cc1 (configuration not stated) | 97.3
CC1(C)CC[C@]23CC[C@]4(C)[C@H](CC[C@@H]5[C@@]6(C)CCCN(CO)C(C)(C)[C@@H]6CC[C@]54C)[C@H]2[C@H]1OC3 | 83.8

====

- Test system: OVCAR-8 ovarian
- Method Notes: NCI-60 one-dose screen, 48 h
- Condition Details: 10 µM unless noted
The panel holds about 83,000 compounds, 20% with a hit somewhere; the sample as a whole holds those more often. Calls of active or inactive are those of the source. The calls were made as follows: active = growth percent below 10; inactive = the rest.
Labels: active, inactive

Smiles Input | Cat
Nc1nc(-c2cccc([N+](=O)[O-])c2)c(N=Nc2ccc(Br)cc2)s1 | active
NC/C(=C/F)COc1ccc2nc(NCc3cccnc3)oc2c1 | inactive
O=C(O)c1cn(C2CC2)c2cc(N3CCN(C(=O)CN4C(=O)CSC4=O)CC3)c(F)cc2c1=O | inactive
CN1CCN(c2nc(-c3csc(-c4ccccc4)n3)cc3ccccc23)CC1 | inactive
N=c1c2cc(-c3ccccc3)oc2ncn1/N=C/c1ccc(Cl)cc1 | inactive
